Entries and their pIC50 values follow.
- experimental system: human thrombin (Homo sapiens, UniProt P00734)
- measurement protocol: Measurement of thrombin inhibition (in vitro enzyme assay)
- assay conditions: human thrombin 0.06 nmol/l, 15 min incubation at 22° C., pH 7.4; substrate 5 μmol/l Boc-Asp(OBzl)-Pro-Arg-AMC, 30 min, fluorescence
Convention used: pIC50 is expressed as -log10 of the molar concentration.

Field: example entries. Status: answers known.
CN(C)C(Cn1cc2ccc(C(=O)NCc3cccc(Cl)c3)cc2n1)c1ccccc1Cl (stereo not drawn) [Example 49] | 7.59
O=C(NCc1cccc(Cl)c1)c1ccc2cn(CCN3CCOC3=O)nc2c1 [Example 4] | 6.67

With those in mind, consider the next compound.
So, Cc1nn(CCn2cc3ccc(C(=O)NCc4cccc(Cl)c4)cc3n2)c(C)c1Cl [Example 26] ? Its pIC50 was 6.96
